Numbers sourced from paper PMC10384782.

Kindly supply the reported CC50 values for the records listed here.
Assay: in vitro
Conditions: human
Write it as a number; the unit nM goes unstated.

Value lookup for CC50; key = CCCCC=CCCCCCCCCCCCC(O)Cc1cc(O)ccc1O (stereo not drawn) [Compound 2] 500

Field entry: CCCCCCCCCCCCCCCC[C@@H](O)Cc1cc(O)ccc1O [Compound 3] 800

Same for CCCC=CCCCCCCCCCCCC(O)Cc1cc(O)ccc1O (stereo not drawn) [Compound 1] 1300

###

System: HCoV-229E
Assay: HCoV-229E-Luc infection inhibition assay (fractions and pure compounds) in Huh7 cells
Assay type: cell-based
Details: Human coronavirus 229E, Huh-7, 12 h, read-out: IC50 (concentration inhibited infection by 50%)
Kindly supply the reported IC50 values for the records listed here.
# do not omit the unit; it follows the number

// returns reported IC50 for input CCCCC=CCCCCCCCCCCCC(O)Cc1cc(O)ccc1O (centres unmarked) [Compound 2] 100 nM

Same read-out for CCCCCCCCCCCCCCCC[C@@H](O)Cc1cc(O)ccc1O [Compound 3] ? 50 nM

###

Assay: in vitro
Conditions: African green monkey
For each record, write down the corresponding CC50.
Enter your answer as a number in nM; do not include the unit.

Fill in the blank: the reported CC50 of CCCCC=CCCCCCCCCCCCC(O)Cc1cc(O)ccc1O (stereo not drawn) [Compound 2] is ____. 500

Another compound to look at: CCCC=CCCCCCCCCCCCC(O)Cc1cc(O)ccc1O (stereo not drawn) [Compound 1] 1500

Next entry: CCCCCCCCCCCCCCCC[C@@H](O)Cc1cc(O)ccc1O [Compound 3] 900
